- assayedTarget: human CCR6 (Homo sapiens)
- methodDescription: Human CCR6-CRE reporter assay
- Format: cell-based
- Parameters: The second construct contained the open reading frame of human CCR6 in the pUNO1 backbone; host or cells: 293FT cells
- testParameters: relative -Log IC50; 293FT cells transfected with human CCR6 and CRE-luciferase reporter; 6 μM Forskolin, 6 nM CCL20; 5 h
Give pIC50 for every item shown.
Scale: pIC50 equals -log10([C]), with [C] in mol/L.

I'm curious: which pIC50 was measured for N=S(=O)(c1ccc(-c2ccc(C(N)=O)cn2)cc1)[C@H]1CC[C@H](Nc2ccc(S(F)(F)(F)(F)F)cc2)CC1 (stereo partly drawn) [Example 111] tested on human CCR6 (Homo sapiens)? 6.00

I'm curious: which pIC50 was measured for Cc1n[nH]c2ncc(-c3ccc(S(=O)(=O)[C@H]4CC[C@H](Nc5ccc(S(F)(F)(F)(F)F)cc5)CC4)cc3)cc12 [Example 150] tested on human CCR6 (Homo sapiens)? 7.20

I'm curious: which pIC50 was measured for CP(C)(=O)c1ccc(-c2ccc(S(=O)(=O)[C@H]3CC[C@H](Nc4ccc(S(F)(F)(F)(F)F)cc4)CC3)cc2)cc1 [Example 57] tested on human CCR6 (Homo sapiens)? 6.70

I'm curious: which pIC50 was measured for N#Cc1cnc2ccc(-c3ccc(S(=O)(=O)N4CCC(Nc5cccc(S(F)(F)(F)(F)F)c5)CC4)cc3)cn12 [Example 81] tested on human CCR6 (Homo sapiens)? 6.90

I'm curious: which pIC50 was measured for Cc1cc(-c2ccc(S(=O)(=O)[C@H]3CC[C@H](Nc4ccc(S(F)(F)(F)(F)F)cn4)CC3)cc2)cn2c(C(C)C)nnc12 [Example 181] tested on human CCR6 (Homo sapiens)? 7.60

I'm curious: which pIC50 was measured for O=C1NCCCn2cc(-c3ccc(S(=O)(=O)[C@H]4CC[C@H](Nc5ccc(S(F)(F)(F)(F)F)cc5)CC4)cc3)cc21 [Example 155] tested on human CCR6 (Homo sapiens)? 6.80

* * *

- assayedTarget: human CCR6 (Homo sapiens, UniProt P51684)
- Sequence (P51684 whole entry): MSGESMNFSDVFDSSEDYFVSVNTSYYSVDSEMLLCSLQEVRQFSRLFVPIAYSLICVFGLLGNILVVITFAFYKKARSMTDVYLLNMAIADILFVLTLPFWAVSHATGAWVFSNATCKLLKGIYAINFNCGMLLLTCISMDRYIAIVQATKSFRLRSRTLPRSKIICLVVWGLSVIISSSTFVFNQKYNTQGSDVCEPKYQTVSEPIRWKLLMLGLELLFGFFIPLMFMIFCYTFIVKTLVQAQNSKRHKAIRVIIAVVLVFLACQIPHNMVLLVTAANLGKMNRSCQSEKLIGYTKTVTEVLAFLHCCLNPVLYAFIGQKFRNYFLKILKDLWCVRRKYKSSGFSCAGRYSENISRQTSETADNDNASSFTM
- methodDescription: Human CCR6-CRE reporter assay
- Format: cell-based
- Set-up: The second construct contained the open reading frame of human CCR6 in the pUNO1 backbone; host or cells: 293FT cells
- testParameters: relative -Log IC50; 293FT cells transfected with human CCR6 and CRE-luciferase reporter; 6 μM Forskolin, 6 nM CCL20; 5 h
pIC50: −log10 of the molar value.
# if value of pIC50 reaches 7, tag Condition met; if it stays below, tag Condition not met

Determine whether measured pIC50 meets or exceeds 7 for `O=S(=O)(c1ccc(-c2ccc3nccn3c2)cc1)N1CCC(Nc2ccc(S(F)(F)(F)(F)F)cn2)CC1` Condition met

Determine whether measured pIC50 meets or exceeds 7 for `N#Cc1nnc2ccc(-c3ccc(S(=O)(=O)[C@H]4CC[C@H](Nc5ccc(S(F)(F)(F)(F)F)cc5)CC4)cc3)cn12` Condition not met

* * *

- assayedTarget: human CCR6 (Homo sapiens, UniProt P51684)
- methodDescription: Human CCR6-CRE reporter assay
- Type: cell-based
- Set-up: The second construct contained the open reading frame of human CCR6 in the pUNO1 backbone; host or cells: 293FT cells
- testParameters: relative -Log IC50; 293FT cells transfected with human CCR6 and CRE-luciferase reporter; 6 μM Forskolin, 6 nM CCL20; 5 h
Give pIC50 for every item shown.
Scale: pIC50 equals -log10([C]), with [C] in mol/L.

Reported pIC50 for N#Cc1cnc2ccc(-c3ccc(S(=O)(=O)N4CCC(Nc5ccc(S(F)(F)(F)(F)F)cc5)CC4)cc3F)cn12 [Example 71] : what is it? 6.00

Reported pIC50 for O=c1cc(-c2ccc(S(=O)(=O)[C@H]3CC[C@H](Nc4ccc(S(F)(F)(F)(F)F)cc4)CC3)cc2)cc[nH]1 [Example 52] : what is it? 7.40

Reported pIC50 for CC(C)c1nnc2ccc(-c3ccc(S(=N)(=O)[C@H]4CC[C@H](Nc5ccc(S(F)(F)(F)(F)F)cc5)CC4)cc3)cn12 (single isomer, unassigned; (+)) [Example 163] : what is it? 7.10

Every entry's value here was drawn from patent US20260070902A1.
